Tested on: C. krusei ATCC 6258
quantity_measured: MIC50 (µg/mL)

Below are worked cases with known answers.
OC(/C=C/c1ccc(Cl)cc1Cl)c1ccc(OCC(O)(Cn2cncn2)c2ccc(F)cc2F)cc1 (stereo not shown) = 4
O=C(/C=C/c1cccs1)c1ccc(OCC(O)(Cn2cncn2)c2ccc(F)cc2F)cc1 (stereo not shown) = 8
O=C(/C=C/c1ccc(Cl)cc1)c1ccc(OC[C@](O)(Cn2cncn2)c2ccc(F)cc2F)cc1 [R-(−)-1A-6] = 1

A = OC(COc1ccc(-c2cc(-c3ccc(Cl)cc3Cl)[nH]n2)cc1)(Cn1cncn1)c1ccc(F)cc1F (stereo not shown)
B = O=C(c1ccc(OCC(O)(Cn2cncn2)c2ccc(F)cc2F)cc1)C1OC1c1ccc(Cl)cc1Cl (stereo not shown)
// select label with min value of measured MIC50 from [ A , B ] Kindly give the label for the entry you pick.
A
